This listing pairs molecules with measured melting point.

Recorded melting point, per entry:
[
  {
    "MOLECULE": "CCOC(=O)Cc1c(C(=O)O)c(Br)c(C(=O)c2ccc(C)cc2)n1C",
    "melting point": "183 to 185 °C"
  },
  {
    "MOLECULE": "CCCCCCCCCCCCCCCC(=O)NCCCC[C@H](N)C(=O)O",
    "melting point": "240 to 245 °C"
  },
  {
    "MOLECULE": "COc1ccccc1-n1c(=O)[nH]c2c(C(N)=O)nc(-c3ccccc3C(F)(F)F)nc21",
    "melting point": "237 to 240 °C"
  }
]

Which melting point value is on record for Cc1oc(-c2ccccc2)nc1COCc1cccc(COc2cc(Cl)ccc2C(=O)O)c1 ?
137 °C

And for NNc1nnc(Cl)cc1N ?
190 °C

And for Cc1cc(C)c2c(c1O)C(NC(=O)CN1CCN(c3cccc(Cl)c3)CC1)C(C)(C)C2 (stereo not given) ?
125 to 126 °C

And for Cc1cc(NCC(C)C)c([N+](=O)[O-])c2nnnn12 ?
185 to 187 °C

And for CCCN(CCC)CCc1ccc(O)c(N)c1 ?
127 to 151 °C

And for CC(C)n1nc(-c2cnc(N)nc2-c2ccc(C(F)(F)F)cc2)ccc1=O ?
209 to 210 °C

And for CN=C(NS(=O)(=O)c1ccc(Cl)cc1)SC ?
121 to 123 °C

----------
MEASURED PARAMETER: melting point

[
  {
    "COMPOUND": "Cc1nc(-c2ccc(C(F)(F)F)cc2)sc1N",
    "melting point": "146 to 148 °C"
  }
]

Which melting point value is on record for COC(=O)c1ccc2[nH]nnc2c1C(=O)OC ?
147 to 150 °C

And for COC(=O)C1=C(O)c2ccc3ccccc3c2S(=O)(=O)N1C ?
229 to 230 °C

And for Fc1cc(F)cc(Cc2cccnc2S)c1 ?
195 to 197 °C

And for Cc1ccc(C2CCC(=NO)c3ccccc32)cc1 (stereo not given) ?
97 to 101 °C

And for O=C1NC(=O)C2(N1)C(=O)N(Cc1ccc(Cl)c(Cl)c1)c1c(F)cccc12 (single isomer, unassigned; (+)) ?
246 °C

And for FC(F)(F)c1cc2[nH]c(N3CCN(c4ncccc4C(F)(F)F)CC3)nc2cc1Cl ?
206 to 208 °C

And for COc1cccc2ccc(C(F)(F)F)nc12 ?
88 to 89 °C

And for Cc1nc(-c2ccc(C(C)(C)C)cc2)sc1C(=O)O ?
190 to 193 °C

And for CCOP(=O)(OCC)Oc1cc(CC)ccc1C1CCN(CCCCNC(=O)c2ccc(NC(=O)c3ccc(Cl)cc3)cc2)CC1 ?
158 to 160 °C

----------
MEASURED PARAMETER: melting point

Recorded melting point, per entry:
[
  {
    "MOLECULE": "O=C(COc1ccccc1)NC1C(=O)N(C(O)(Cc2ccccc2)C(=O)O)C1CI (stereo unspecified)",
    "TEST RESULT": "159 to 160 °C"
  },
  {
    "MOLECULE": "Fc1ccc(CSc2nnc(-c3ccc4c(c3)CCO4)o2)cc1C(F)(F)F",
    "TEST RESULT": "94 to 95 °C"
  },
  {
    "MOLECULE": "CC(C)OC(=O)C1=C(c2cn(C)c3ccccc23)C(=O)NC1=O",
    "TEST RESULT": "199 to 202 °C"
  }
]

Which melting point value is on record for Cc1nc2c(OCc3c(N)cccc3Cl)cccn2c1Br ?
177 to 178 °C

And for Cn1c(=O)c(C(=O)NC2CCCCC2)c(O)c2cc(F)ccc21 ?
193 °C

----------
This listing pairs molecules with measured melting point.
Numbers only here, please. The scale is °C.

[
  {
    "MOLECULE": "CS(=O)(=O)c1cc(CCC(=O)O)nc(-c2nc(=O)c3ccc(F)cc3s2)c1",
    "melting point [°C]": 236
  },
  {
    "MOLECULE": "CC(C)(C)c1cc(C(=O)c2ccc[nH]2)cc(C(C)(C)C)c1O",
    "melting point [°C]": 146
  },
  {
    "MOLECULE": "N#Cc1ccn2c1CSC2c1cccnc1 (stereo not given)",
    "melting point [°C]": 110
  }
]

Let us examine a further case.
Which melting point value is on record for CNC(=S)N1CCc2[nH]cnc2C1c1cccs1 (stereo not given) ?
215

----------
MEASURED PARAMETER: melting point

Recorded melting point, per entry:
[
  {
    "COMPOUND": "COc1ccc(O)c(C2(CO)C(=O)N(Cc3ccc(C(F)(F)F)o3)c3ccc(F)cc32)n1 (stereo not given)",
    "TEST RESULT": "110 to 113 °C"
  },
  {
    "COMPOUND": "CCOC(=O)C1=CC(C(=O)c2cc(C)ccc2O)=CN2CCc3c([nH]c4ccc(OC)cc34)C12C(=O)OCC (stereo not given)",
    "TEST RESULT": "228 °C"
  },
  {
    "COMPOUND": "COc1ccc(N2CCN(C(=O)[C@H](Cc3ccccc3)NC(=O)Nc3n[nH]c(=S)s3)CC2)cc1",
    "TEST RESULT": "201 to 203 °C"
  },
  {
    "COMPOUND": "CCc1cc(=O)n(C)c2c1C(=O)CCC2",
    "TEST RESULT": "65 to 70 °C"
  },
  {
    "COMPOUND": "Nc1nc2c(ncn2[C@@H]2C[C@H](O)[C@@H](O)[C@H]2O)c(=O)[nH]1 (racemic)",
    "TEST RESULT": "295 °C"
  }
]

Which melting point value is on record for CC(=O)c1ccc(NS(C)(=O)=O)c(Oc2ccc(Cl)cc2Cl)c1 ?
119 to 121 °C

And for O=C1CN2C(=O)C(c3ccccc3)(c3ccccc3)c3cccc(c32)N1 ?
235 to 255 °C

And for CC(C)CCS(=O)(=O)NC(=O)CCc1cc(OC(C)C)nn1Cc1ccc(Cl)cc1Cl ?
143 to 145 °C

And for CC(=O)c1c(C)c(NC(=O)CC(C)(C)C)c(C)c2c1S(=O)CC2c1ccc(C(C)C)cc1 (stereo not given) ?
214 to 216 °C

And for CC(C)Oc1ccc(N2CCCN(c3cc[nH]c(=S)c3C#N)CC2)cc1 ?
216 to 218 °C

And for CCOC(=O)c1cnc2cc(F)c(F)cc2c1Cl ?
111 °C

And for CCOC(=O)CCn1c(=O)c2ccccc2n(CCCCCl)c1=O ?
71 to 72 °C

----------
This listing pairs molecules with measured melting point.

[
  {
    "MOLECULE": "CCCCNC(=O)Oc1ccc(C(O)(CC)c2cccc(C(F)(F)F)c2)c(OC(=O)NCCCC)c1 (stereo not given)",
    "TEST RESULT": "110 to 111 °C"
  },
  {
    "MOLECULE": "O=C(c1ccc(Cl)cc1)c1cc(CBr)ccc1Cl",
    "TEST RESULT": "81 to 83 °C"
  },
  {
    "MOLECULE": "N=C1NC(=O)C(Cc2ccc(OCCN3CCOCC3)cc2)S1 (stereo not given)",
    "TEST RESULT": "189 to 190 °C"
  },
  {
    "MOLECULE": "Cc1cnc(C2=NC(C)(C(C)C)C(=O)N2)c(C(O)c2ccc(C)s2)c1 (stereo not given)",
    "TEST RESULT": "147 to 148 °C"
  }
]

Let us examine a further case.
Which melting point value is on record for N#Cc1ccc(C(=O)n2ccnc2)cc1 ?
152 to 154 °C

----------
MEASURED PARAMETER: melting point

Which melting point value is on record for COC(=O)C1CSc2ccc(Cl)cc2C1=O (stereo unspecified) ?
64 to 67 °C

And for CCCCCSCCSCCSCCCCC ?
< 50 °C

And for O=C(O)CC1CCc2c(n(Cc3ccccc3)c3ccccc23)S1 (stereo unspecified) ?
164 to 167 °C

And for CC=C1CCC2C3=CC=C4CC(O[Si](C)(C)C(C)(C)C(C)C)CCC4(C)C3CCC12C (stereo unspecified) ?
94 to 97 °C

And for O=C1c2ccccc2C(=O)N1CCCC(O)CF (stereo unspecified) ?
85 °C

And for OCC(O)(Cn1cncn1)c1ccc(F)cc1F (stereo unspecified) ?
99 to 100 °C

And for CS(=O)(=O)c1ccc(-c2cc(C(=O)CCCO)nn2C2CCCCC2)cc1 ?
112 to 114 °C

And for CC(C)(C)OC(=O)N1CCC(C#N)(CCl)CC1 ?
114 to 116 °C

And for CSc1nc(Cl)c2cc(Br)ccc2n1 ?
124 °C

And for CC(C)N(CCOc1ccc(-c2nnc(CSCCOc3ccccc3)o2)cc1)C(C)C ?
42 to 45 °C

And for COc1cc(CC(=O)NCCCc2ccc(C)c(C)c2)ccc1OCCBr ?
105 °C

This collection of values is drawn from a melting point compilation (Tetko et al.; mined from patent text by program, amines drawn as free bases though some values may be those of a salt).
